Target: T1, human CC chemokine receptor 1 (human CCR1) (human, UniProt P32246 1-355)
T1 construct: endogenous on THP-1 cells in the migration assays; also called hCCR1; CHO-S-hCCR1 (expressing cells)
T1 sequence: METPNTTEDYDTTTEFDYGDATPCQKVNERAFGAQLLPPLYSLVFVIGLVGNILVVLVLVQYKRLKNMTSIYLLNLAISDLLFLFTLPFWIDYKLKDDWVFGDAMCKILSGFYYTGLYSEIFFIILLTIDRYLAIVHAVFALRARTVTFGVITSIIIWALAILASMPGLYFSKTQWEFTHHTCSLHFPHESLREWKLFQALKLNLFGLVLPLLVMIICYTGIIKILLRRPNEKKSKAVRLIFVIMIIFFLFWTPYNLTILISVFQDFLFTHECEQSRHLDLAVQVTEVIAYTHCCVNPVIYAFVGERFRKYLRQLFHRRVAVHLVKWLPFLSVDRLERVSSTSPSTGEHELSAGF
Test: flow cytometry on CHO-S-hCCR1 cells; bound = fluorescence 10 times or more that of isotype control hzDNP1
measured-parameter: binding result

binder	measured-parameter	reported-result
hzKM5907 LV2aHV0 antibody (antibody, V domains shown, humanized; also called hzmAb5907 LV2aHV0) VH: EVQLLESGGGLVQPGGSLRLSCAASGFTFSRYGMSWVRQAPGKGLEWVSSISATFTYTYYTDNVKGRFTISRDNSKNTLYLQMNSLRAEDTAVYYCAKQDNYAWFDSWGQGTLVTVSS VL: DIVMTQTPLSLPVTSGEPASISCRSSQSIVHSNGNTFLEWYLKKPGQSPKLLIYKVSSRFSGVPDRFSGSGSGTDFTLKISRVEAEDVGVYYCFQGSHIPWTFGGGTKVEIK	binding result	binds
hzKM5907 LV0HV0 antibody (antibody, V domains shown, humanized; also called hzmAb5907 LV0HV0) VH: EVQLLESGGGLVQPGGSLRLSCAASGFTFSRYGMSWVRQAPGKGLEWVSSISATFTYTYYTDNVKGRFTISRDNSKNTLYLQMNSLRAEDTAVYYCAKQDNYAWFDSWGQGTLVTVSS VL: DIVMTQTPLSLPVTSGEPASISCRSSQSIVHSNGNTFLEWYLQKPGQSPQLLIYKVSSRFSGVPDRFSGSGSGTDFTLKISRVEAEDVGVYYCFQGSHIPWTFGGGTKVEIK	binding result	binds
